Catalogue of molecules with associated TGI
tested on: NCI/ADR-RES ovarian; experiment: NCI tumour cell line growth inhibition, 48 h
*1 amine or outer side, *2 acyl side, *3 side chain or, on linkers, in order; H or OH if unused. Where a SMILES comes first, the peptide text is derived from it. Bridges are numbered along the chain shown (N, C = ends). Roman numbers before positions name the chains, in order. [ ]: non-standard residue; d: D form. Actinocin(9to1) = Cc1c2oc3c(C)ccc(C(=O)[*:1])c3nc-2c(C(=O)[*:2])c(N)c1=O; NMeH = CN[CH](Cc1c[nH]cn1)C(=O)O; Sar = CNCC(=O)O

{"columns": ["MOLECULE", "TGI"],
 "data": [
  ["O=C1NC(N/N=C\\C(O)C(O)C(O)C(O)CO)=N/C1=C/c1ccccc1 (stereo not given)", "> 100 µM"],
  ["Cc1cc(-n2nnc(C(=O)O)c2-c2ccccc2)c2ccc(Cl)cc2n1", "> 100 µM"],
  ["C[C@H]1[C@H](C)N1CC(O)Cn1ccnc1[N+](=O)[O-] (stereo not given in full)", "> 100 µM"],
  ["O=[N+]([O-])/C=C/c1c(Cl)cccc1Cl", "12.5 µM"],
  ["CCCCc1ccc(Nc2ncc3ncn(COCCO)c3n2)cc1", "> 100 µM"],
  ["C#CC[C@@]12CC(=O)C[C@@H]1CCC1(C2)OCCO1 (tested in a mixture with another compound)", "> 100 µM"],
  ["CC(C)(C)OC(=O)N/C(C=O)=C\\C1CCCCC1", "44.3 µM"],
  ["COC(=O)c1cc(-c2ccccc2)[nH]c1N/N=C/c1c(Cl)cccc1Cl", "0.77 µM"],
  ["COc1cc2cc(C(=O)N3CC(COS(C)(=O)=O)c4ccc(NC(=O)OCc5ccccc5)cc43)[nH]c2c(OC)c1OC (stereo not given)", "> 100 µM"],
  ["CCN1C/C(=C\\c2ccc(Cl)cc2)c2nc(N)c(C#N)c(-c3ccc(Cl)cc3)c2C1", "> 100 µM"],
  ["CCOC(=O)N1C/C(=C\\c2ccccc2)C(=O)/C(=C/c2ccccc2)C1", "36.6 µM"],
  ["Cc1c(CNc2ccc(C(=O)NC(CCCNC(=O)c3ccccc3C(=O)O)C(=O)O)cc2)cnc2nc(N)nc(N)c12 (stereo not given)", "> 100 µM"],
  ["O=C(COc1ccc(OCC(=O)N2C(=O)CC(=O)N(c3ccc(Cl)cc3)C2=S)cc1)N1C(=O)CC(=O)N(c2ccc(Cl)cc2)C1=S", "93.4 µM"],
  ["CC(=O)O[C@H]1CC[C@@]2(C)C(=CC[C@@H]3[C@@H]2CC[C@]2(C)C(=N/O)/C(=C\\c4ccccc4)C[C@@H]32)C1", "> 72.9 µM"],
  ["O=C1COc2cc(N3CCN(c4cccc(C(F)(F)F)c4)CC3)ccc2N1", "> 100 µM"],
  ["O[C@@H]1C=C[C@]23CCN(Cc4cc5c(cc42)OCO5)[C@@H]3C1", "> 100 µM"],
  ["COc1cc2ccc(C(=O)NCCCNC(=O)c3ccc4cc(OC)c(OC)cc4c3)cc2cc1OC", "> 100 µM"],
  ["Cc1c2oc3c(C)ccc(C(=O)NC4C(=O)NC(C(C)C)C(=O)N5CCCC5C(=O)N(C)CC(=O)N(C)C(Cc5cnc[nH]5)C(=O)OC4C)c3nc-2c(C(=O)NC2C(=O)NC(C(C)C)C(=O)N3CCCC3C(=O)N(C)CC(=O)N(C)C(Cc3cnc[nH]3)C(=O)OC2C)c(N)c1=O (stereo not given) (I: TVP[Sar][NMeH] / II: TVP[Sar][NMeH]; ester I:1-I:C, II:1-II:C; linker I:N-II:N via Actinocin(9to1); configuration not given here)", "> 100 µM"],
  ["COc1ccc2c(c1)/C(=C\\c1ccncc1)C(=O)N2", "67.1 µM"],
  ["O=C(Oc1cccc(Cl)c1)c1ccccc1Nc1ccnc(C(F)(F)F)c1", "6.1 µM"],
  ["COc1ccc(C#Cn2nnc3ccccc32)cc1", "> 100 µM"],
  ["Cn1cccc1-c1ccc(-c2ccc(CO)[se]2)[se]1", "> 81 µM"],
  ["Cc1ccc(/C=C(\\C#N)c2cc3ccccc3n2C)cc1", "> 100 µM"],
  ["CC(C)(C)C1CCC2c3c([nH]c4ccccc34)C3C(=O)N(c4ccc(C#N)cc4)C(=O)C3C2C1 (stereo not given)", "53.5 µM"],
  ["Cc1ccc(S(=O)(=O)N2C[C@@H]3CC[C@]4(CO[Si](C)(C)C(C)(C)C)N[C@@H](c5ccccc5)[C@H]2[C@H]34)cc1", "> 100 µM"],
  ["c1ccc(-c2nn3c(c2-c2ccnc4cc(OCCN5CCOCC5)ccc24)CCC3)nc1", "> 100 µM"],
  ["COC(=O)c1ccccc1C1CN=NC12Cc1c(ccc3c1CCC3)C2=O (stereo not given)", "> 100 µM"],
  ["Cc1cc2[nH]c3c(C#N)c(-c4ccccc4)c(N=Nc4ccc(F)cc4)c(=O)n3c2cc1C", "> 100 µM"],
  ["O=P1(N2CCOCC2)OCCO1", "> 100 µM"],
  ["Cc1ccc(S(=O)(=O)NC(CCC(=O)NNc2ccccc2)C(=O)NNc2ccccc2)cc1 (stereo not given)", "> 100 µM"],
  ["O=C1c2cc(Cc3ccccc3)c(=O)c(Cc3ccccc3)cc2C(=O)c2cc(Cc3ccccc3)c(=O)c(Cc3ccccc3)cc21", "> 100 µM"],
  ["O=C(c1ccccc1)c1ccc2nc(-c3c(Cl)c(Cl)c(Cl)c(Cl)c3-c3nnc(-c4ccccc4)o3)[nH]c2c1", "> 100 µM"],
  ["OC1(c2ccccc2)C2CC=CC2C1(c1ccccc1)c1ccccc1 (stereo not given)", "> 100 µM"],
  ["COc1cc(/C=C2\\CC/C(=C\\c3cc(OC)c(O)c(OC)c3)C2=O)cc(OC)c1O", "13.9 µM"],
  ["C[C@]12CC[C@H]3[C@@H](CCC4=CC(=O)C=C[C@@]43OC(=O)C(F)(F)F)[C@@H]1CCC2=O", "> 100 µM"]
]}
